Target: EZH2 within the PRC2 complex (Homo sapiens, UniProt Q15910)
Construct: FLAG
Sequence (Q15910 whole entry): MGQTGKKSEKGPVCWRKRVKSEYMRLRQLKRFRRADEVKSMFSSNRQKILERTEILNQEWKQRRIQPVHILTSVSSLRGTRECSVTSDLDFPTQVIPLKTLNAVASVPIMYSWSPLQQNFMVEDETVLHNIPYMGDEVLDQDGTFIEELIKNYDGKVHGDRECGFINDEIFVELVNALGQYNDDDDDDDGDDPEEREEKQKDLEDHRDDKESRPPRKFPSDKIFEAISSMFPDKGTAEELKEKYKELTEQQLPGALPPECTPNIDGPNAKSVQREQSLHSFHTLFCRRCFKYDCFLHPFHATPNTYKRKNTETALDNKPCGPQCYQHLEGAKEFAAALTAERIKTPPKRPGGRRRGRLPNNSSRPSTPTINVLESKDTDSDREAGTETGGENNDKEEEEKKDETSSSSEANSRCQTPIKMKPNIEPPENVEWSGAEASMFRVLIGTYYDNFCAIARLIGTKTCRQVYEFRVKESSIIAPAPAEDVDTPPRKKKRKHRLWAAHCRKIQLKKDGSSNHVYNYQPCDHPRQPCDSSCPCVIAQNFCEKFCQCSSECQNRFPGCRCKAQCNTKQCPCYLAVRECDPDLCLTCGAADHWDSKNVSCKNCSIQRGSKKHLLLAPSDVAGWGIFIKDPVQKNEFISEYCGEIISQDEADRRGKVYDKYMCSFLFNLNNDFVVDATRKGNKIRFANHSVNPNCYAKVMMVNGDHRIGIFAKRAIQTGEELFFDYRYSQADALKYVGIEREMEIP
Sequence (O75530 whole entry partner): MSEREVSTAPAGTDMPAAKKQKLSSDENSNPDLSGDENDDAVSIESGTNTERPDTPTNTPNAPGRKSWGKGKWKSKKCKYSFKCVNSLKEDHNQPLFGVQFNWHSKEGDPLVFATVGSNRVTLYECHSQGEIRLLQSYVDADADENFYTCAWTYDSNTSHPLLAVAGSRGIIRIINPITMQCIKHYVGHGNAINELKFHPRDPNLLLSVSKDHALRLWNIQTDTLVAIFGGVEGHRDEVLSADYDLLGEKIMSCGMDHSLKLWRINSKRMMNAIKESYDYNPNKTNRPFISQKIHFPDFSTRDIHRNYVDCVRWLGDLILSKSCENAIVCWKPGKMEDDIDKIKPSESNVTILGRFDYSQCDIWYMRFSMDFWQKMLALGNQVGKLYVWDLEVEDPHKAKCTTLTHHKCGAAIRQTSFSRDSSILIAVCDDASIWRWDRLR
Sequence (Q15022 whole entry partner): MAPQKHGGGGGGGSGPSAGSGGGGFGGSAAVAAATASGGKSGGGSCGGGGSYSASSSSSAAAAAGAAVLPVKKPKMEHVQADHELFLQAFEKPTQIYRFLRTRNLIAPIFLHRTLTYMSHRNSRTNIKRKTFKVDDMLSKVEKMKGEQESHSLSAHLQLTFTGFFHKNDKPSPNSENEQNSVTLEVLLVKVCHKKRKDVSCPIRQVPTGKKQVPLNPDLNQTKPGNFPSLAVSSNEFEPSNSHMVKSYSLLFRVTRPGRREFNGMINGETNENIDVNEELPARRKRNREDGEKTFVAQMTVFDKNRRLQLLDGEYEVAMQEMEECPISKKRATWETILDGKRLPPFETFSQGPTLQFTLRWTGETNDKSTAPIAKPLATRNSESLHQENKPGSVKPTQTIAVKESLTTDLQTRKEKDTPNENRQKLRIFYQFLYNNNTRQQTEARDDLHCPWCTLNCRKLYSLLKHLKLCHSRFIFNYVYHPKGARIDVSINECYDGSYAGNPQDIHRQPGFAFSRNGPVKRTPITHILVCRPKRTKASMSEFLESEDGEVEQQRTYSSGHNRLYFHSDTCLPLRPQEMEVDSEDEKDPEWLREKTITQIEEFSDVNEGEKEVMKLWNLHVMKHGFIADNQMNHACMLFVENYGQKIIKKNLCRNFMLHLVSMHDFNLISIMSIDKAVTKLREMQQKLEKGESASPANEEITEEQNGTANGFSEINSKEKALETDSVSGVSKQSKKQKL
Sequence (Q09028 whole entry partner): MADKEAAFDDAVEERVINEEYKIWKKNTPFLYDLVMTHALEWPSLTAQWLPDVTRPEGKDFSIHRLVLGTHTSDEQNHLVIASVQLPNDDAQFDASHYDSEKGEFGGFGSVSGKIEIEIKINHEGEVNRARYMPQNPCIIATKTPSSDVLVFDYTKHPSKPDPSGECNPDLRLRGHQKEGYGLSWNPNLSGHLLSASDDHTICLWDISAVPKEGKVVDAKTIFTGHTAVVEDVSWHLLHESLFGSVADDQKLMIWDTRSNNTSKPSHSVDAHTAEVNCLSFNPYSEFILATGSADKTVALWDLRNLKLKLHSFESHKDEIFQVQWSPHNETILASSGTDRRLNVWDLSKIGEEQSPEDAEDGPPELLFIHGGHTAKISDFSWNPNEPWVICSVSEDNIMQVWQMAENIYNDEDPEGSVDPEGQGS
Sequence (Q6ZN18 whole entry partner): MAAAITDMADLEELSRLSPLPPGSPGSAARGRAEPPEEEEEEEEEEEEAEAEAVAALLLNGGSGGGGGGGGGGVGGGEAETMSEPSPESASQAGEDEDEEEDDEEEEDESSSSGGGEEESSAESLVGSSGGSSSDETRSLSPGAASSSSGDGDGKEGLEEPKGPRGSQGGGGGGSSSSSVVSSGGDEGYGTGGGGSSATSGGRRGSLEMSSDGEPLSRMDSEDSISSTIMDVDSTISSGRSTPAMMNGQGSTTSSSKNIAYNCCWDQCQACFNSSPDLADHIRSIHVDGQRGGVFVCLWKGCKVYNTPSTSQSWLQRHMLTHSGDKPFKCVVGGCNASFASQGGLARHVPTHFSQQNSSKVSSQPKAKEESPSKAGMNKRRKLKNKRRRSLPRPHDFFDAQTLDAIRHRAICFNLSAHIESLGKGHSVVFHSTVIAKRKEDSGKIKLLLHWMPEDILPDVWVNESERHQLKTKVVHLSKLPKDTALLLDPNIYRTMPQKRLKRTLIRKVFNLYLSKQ
Assay: EZH2 methyltransferase scintillation proximity assay (SPA) with PRC2 complex
Conditions: 3H-SAM methyl transfer to Histone H3 of HeLa mononucleosomes; 30 min preincubation, 1 hour reaction
Returns: string. Value is True if measured IC50 is below 400 nM, and False if it is greater than or equal to it.

[ask] Field: below-cutoff. Rule: recorded IC50 strictly less than 400 nM. Subject: Cc1cc(=O)c(CNC(=O)c2cc(Cl)cc(OC3CCN(C(=O)OC(C)(C)C)CC3)c2C)c(C)[nH]1
[reply] False

[ask] Field: below-cutoff. Rule: recorded IC50 strictly less than 400 nM. Subject: Cc1cc(=O)c(CNC(=O)c2cc(Cl)cc(O[C@H]3CC[C@H](N4CCCC4)CC3)c2C)c(C)[nH]1
[reply] False

[ask] Field: below-cutoff. Rule: recorded IC50 strictly less than 400 nM. Subject: Cc1cc(=O)c(CNC(=O)c2cc(Cl)cc(OC3CCN(c4ccncn4)CC3)c2C)c(C)o1
[reply] False

[ask] Field: below-cutoff. Rule: recorded IC50 strictly less than 400 nM. Subject: CCN(c1cc(Br)cc(C(=O)NCc2c(C)[nH]c(C)cc2=O)c1C)[C@H]1CC[C@H](N(C)C)CC1
[reply] True

[ask] Field: below-cutoff. Rule: recorded IC50 strictly less than 400 nM. Subject: Cc1cc(=O)c(CNC(=O)c2cc(Cl)cc(OC3CCNCC3)c2C)c(C)[nH]1
[reply] False

[ask] Field: below-cutoff. Rule: recorded IC50 strictly less than 400 nM. Subject: CCN(c1cc(Cl)cc(C(=O)NCc2c(C)[nH]c(C)cc2=O)c1C)[C@H]1CC[C@H](N(C)C)CC1
[reply] True

[ask] Field: below-cutoff. Rule: recorded IC50 strictly less than 400 nM. Subject: CCN(c1cc(Br)cc(C(=O)NCc2c(C)[nH]c(C)c(N)c2=O)c1C)[C@H]1CC[C@H](N(C)C)CC1
[reply] True

* * *

Target: EZH2 within the PRC2 complex (Homo sapiens)
Construct: FLAG
Test: EZH2 methyltransferase scintillation proximity assay (SPA) with PRC2 complex
Conditions: 3H-SAM methyl transfer to Histone H3 of HeLa mononucleosomes; 30 min preincubation, 1 hour reaction
Property: IC50; scope: individual compounds
The reply should contain only the number, in nM.

These recorded examples may help you get a feel for the data.
# IC50 (compound: Cc1cc(=O)c(CNC(=O)c2cc(Cl)cc(OC3CCN(C(=O)OCc4ccccc4)CC3)c2C)c(C)[nH]1 [Example 1] ) is 200

# IC50 (compound: CCN(c1cc(Cl)cc(C(=O)NCc2c(C)[nH]c(C)c(N)c2=O)c1C)C1CCOCC1 [Example 17] ) is 32

# IC50 (compound: Cc1cc(=O)c(CNC(=O)c2cc(Cl)cc(O[C@H]3CC[C@H](C(=O)NCc4ccccc4)CC3)c2C)c(C)[nH]1 [Example 4] ) is 40

# IC50 (compound: CCN(c1cc(Cl)cc(C(=O)NCc2c(C)oc(C)cc2=O)c1C)[C@H]1CC[C@H](N(C)C)CC1 [Example 6] ) is 40

# IC50 (compound: Cc1cc(=O)c(CNC(=O)c2cc(Cl)cc(OC3CCN(C)CC3)c2C)c(C)[nH]1 [Example 13] ) is 5000

Next:
# IC50 (compound: Cc1cc(=O)c(CNC(=O)c2cc(Cl)cc(OC3CCN(c4ccncn4)CC3)c2C)c(C)[nH]1 [Example 3] ) is 251

# IC50 (compound: Cc1cc(=O)c(CNC(=O)c2cc(Cl)cc(O[C@H]3CC[C@H](N(C)C)CC3)c2C)c(C)[nH]1 [Example 14] ) is 395

# IC50 (compound: CCN(c1cc(Br)cc(C(=O)NCc2c(C)[nH]c(C)cc2=O)c1C)C1CCOCC1 [Example 15] ) is 40

# IC50 (compound: Cc1cc(=O)c(CNC(=O)c2cc(Cl)cc(OC3CCOCC3)c2C)c(C)[nH]1 [Example 2] ) is 6310

# IC50 (compound: CCN(c1cc(Br)cc(C(=O)NCc2c(C)[nH]c(C)c(N)c2=O)c1C)[C@H]1CC[C@H](N2CCOCC2)CC1 [Example 20] ) is 50
